Each recorded value in this set is attributed to the supplement of paper PMC5752671.

The entries below are paired with their reported IC50 (log10 M).
# Tested on: U937
# ASSAY METHOD TEXT: IC50 (cell viability) (log10 M)
# REPORTED CONDITIONS: 4 days

- INPUT SMILES: "Nc1cc(C(F)(F)F)c(-c2cc(N3CCOCC3)nc(N3CCOCC3)n2)cn1"
  RELATION QUALIFIER: "="
  IC50 (log10 M): -6.45
- INPUT SMILES: "COC(=O)c1ccc2c(c1)NC(=O)/C2=C(\\Nc1ccc(N(C)C(=O)CN2CCN(C)CC2)cc1)c1ccccc1"
  RELATION QUALIFIER: ">"
  IC50 (log10 M): -5
- INPUT SMILES: "CCCS(=O)(=O)Nc1ccc(F)c(C(=O)c2c[nH]c3ncc(Cl)cc23)c1F"
  RELATION QUALIFIER: ">"
  IC50 (log10 M): -5
- INPUT SMILES: "Cc1ccc(S(=O)(=O)/C=C/C#N)cc1"
  RELATION QUALIFIER: "="
  IC50 (log10 M): -6.11
